Where do these numbers come from? They come from PubChem BioAssay AID1376.

// reported inhibition for each item listed
- target_or_test_system: Bifunctional protein GlmU (Mycobacterium tuberculosis (strain ATCC 25618 / H37Rv)) (UniProt P9WMN3)
- Sequence (P9WMN3 whole entry, looked up): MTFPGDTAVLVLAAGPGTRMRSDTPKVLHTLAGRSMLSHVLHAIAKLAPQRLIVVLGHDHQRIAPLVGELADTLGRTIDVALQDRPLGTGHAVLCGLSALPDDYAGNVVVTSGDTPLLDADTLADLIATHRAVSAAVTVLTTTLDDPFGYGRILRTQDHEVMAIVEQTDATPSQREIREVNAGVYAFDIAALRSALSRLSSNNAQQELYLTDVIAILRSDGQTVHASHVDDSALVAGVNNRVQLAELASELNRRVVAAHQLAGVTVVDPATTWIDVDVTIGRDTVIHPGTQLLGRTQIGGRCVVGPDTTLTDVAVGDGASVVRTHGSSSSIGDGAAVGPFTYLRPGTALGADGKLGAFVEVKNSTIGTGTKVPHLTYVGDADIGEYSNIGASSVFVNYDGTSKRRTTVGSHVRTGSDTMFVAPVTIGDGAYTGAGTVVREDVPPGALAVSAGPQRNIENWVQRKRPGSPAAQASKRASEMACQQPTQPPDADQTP
- assay_name: inhibition of mycobacterial GlmU enzyme – biochemical, glucosamine-1-phosphate acetyltransferase (AID 1376);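 note: 0% = complete reaction with vehicle and 100% = reaction without substrate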
- condition_info: M. tuberculosis GlmU acetyltransferase enzyme assay; stronger effect = higher value;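 tested at 30 µM in the primary screen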
The campaign covered roughly 220,000 compounds. About 530 (0.24%) were called active. Many of the other results were omitted from the sample, so actives are more common in it than they were. Potency and affinity values are given separately.
State just the number; it will be interpreted in %.

Worked examples, 4 compounds total:
{"compound": "C=CCn1c(O)c(C=Nc2c(C)n(C)n(-c3ccccc3)c2=O)c(=O)[nH]c1=O", "endpoint_value": -2.53}
{"compound": "CCOC(=O)C1C(=O)NC(SCC(=O)OC)=C(C#N)C1c1ccccc1OCC (stereo not given)", "endpoint_value": -2.95}
{"compound": "CCN(CC)S(=O)(=O)c1ccc(OC)c(NC(=O)c2ccc([N+](=O)[O-])cc2)c1", "endpoint_value": -2.82}
{"compound": "CC(/C=C/c1ccccc1)=N\\NC(=O)c1ccncc1", "endpoint_value": 2.68}

Now, please, on to the next compound.
Enquiry: I would be grateful if you could share the reported inhibition for Cc1ccccc1-n1c(-c2ccoc2C)n[nH]c1=S .
Return: 5.31

###

- target_or_test_system: Bifunctional protein GlmU (Mycobacterium tuberculosis (strain ATCC 25618 / H37Rv)) (UniProt P9WMN3)
- assay_name: inhibition of mycobacterial GlmU enzyme – biochemical, glucosamine-1-phosphate acetyltransferase (AID 1376);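 note: 0% = complete reaction with vehicle and 100% = reaction without substrate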
- condition_info: M. tuberculosis GlmU acetyltransferase enzyme assay; stronger effect = higher value;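 tested at 30 µM in the primary screen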
Screen size: about 220,000 compounds; about 530 (0.24%) were called active. Only a selection was taken, and actives are over-represented in it overall. Potency and affinity values are given separately.
// reported inhibition for each item listed
State just the number; it will be interpreted in %.

Enquiry: I would be grateful if you could share the reported inhibition for CCC(=O)Nc1sc(C(=O)Nc2ccccc2OC)c(C)c1C(=O)OC .
Return: 7.34

Enquiry: I would be grateful if you could share the reported inhibition for COCCn1nnnc1C(C(C)C)N(Cc1cccnc1)Cc1cc2cc(OC)ccc2[nH]c1=O (stereo unspecified) .
Return: 0.94

Enquiry: I would be grateful if you could share the reported inhibition for O=C(O)c1cccc(N/N=C/c2cccs2)c1 .
Return: 4.35

Enquiry: I would be grateful if you could share the reported inhibition for Cc1oc2c(O)c(O)ccc2c(=O)c1-c1cnn(-c2ccccc2)c1 .
Return: 15

Enquiry: I would be grateful if you could share the reported inhibition for Cc1oc2c(C)c(O)ccc2c(=O)c1-c1cnn(-c2ccccc2)c1 .
Return: -1.79

###

- target_or_test_system: Bifunctional protein GlmU (Mycobacterium tuberculosis (strain ATCC 25618 / H37Rv))
- assay_name: inhibition of mycobacterial GlmU enzyme – biochemical, glucosamine-1-phosphate acetyltransferase (AID 1376);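 note: 0% = complete reaction with vehicle and 100% = reaction without substrate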
- condition_info: M. tuberculosis GlmU acetyltransferase enzyme assay; stronger effect = higher value;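 tested at 30 µM in the primary screen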
The campaign covered roughly 220,000 compounds. About 530 (0.24%) were called active. The entries come from a sample that favours actives as a whole. Potency and affinity values are given separately.
reported_metric: inhibition (%)
State just the number; it will be interpreted in %.

{"chemical_structure": "COC(=O)CCN(C(=O)c1cccc([N+](=O)[O-])c1)c1ccccn1", "reported_metric": "inhibition", "units_label": "%", "endpoint_value": 2.81}
{"chemical_structure": "Cc1ccc(C2=CSC3=NS(=O)(=O)CCN23)cc1", "reported_metric": "inhibition", "units_label": "%", "endpoint_value": -2.55}

Enquiry: I would be grateful if you could share the reported inhibition for O=C(/C=C/c1ccc(O)c(O)c1)OCCc1ccccc1 .
Return: -2.12

Enquiry: I would be grateful if you could share the reported inhibition for Cc1cccc(OCCNC(=O)c2ncn[nH]2)c1 .
Return: 1.93

Enquiry: I would be grateful if you could share the reported inhibition for O=C(O)/C=C/c1ccc(O)c(O)c1 .
Return: 5.24

Enquiry: I would be grateful if you could share the reported inhibition for Cc1cccc(NC(=O)CCc2ccc(S(=O)(=O)NC3CCCCC3)cc2)c1 .
Return: 4.56

Enquiry: I would be grateful if you could share the reported inhibition for COC(=O)c1cc(Cl)nc2ccccc12 .
Return: 5.71

Enquiry: I would be grateful if you could share the reported inhibition for CCOC(=O)c1c(C2CC2)csc1NC(=O)COC(=O)c1cnc(Cl)c(Cl)c1 .
Return: 4.42

Enquiry: I would be grateful if you could share the reported inhibition for Cc1ccc(/C=N/NC(=O)C[n+]2ccccc2)o1 .
Return: 5.08

Enquiry: I would be grateful if you could share the reported inhibition for Cc1ccc(N(CC(=O)N/N=C/c2cc(C)n(-c3ccccc3)c2C)S(C)(=O)=O)c(C)c1 .
Return: 1.57

Enquiry: I would be grateful if you could share the reported inhibition for CCOC(=O)N1CCC(NC(=O)c2cccn3c(=O)c4cc(Br)ccc4nc23)CC1 .
Return: 3.26

Enquiry: I would be grateful if you could share the reported inhibition for O=C1CCCN1c1cc(Cl)cc(Cl)c1 .
Return: 0.87

###

// reported inhibition for each item listed
- target_or_test_system: Bifunctional protein GlmU (Mycobacterium tuberculosis (strain ATCC 25618 / H37Rv)) (UniProt P9WMN3)
- assay_name: inhibition of mycobacterial GlmU enzyme – biochemical, glucosamine-1-phosphate acetyltransferase (AID 1376);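 note: 0% = complete reaction with vehicle and 100% = reaction without substrate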
- condition_info: M. tuberculosis GlmU acetyltransferase enzyme assay; stronger effect = higher value;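 tested at 30 µM in the primary screen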
About 530 (0.24%) of roughly 220,000 compounds were called active. What follows is part of a selection rich in actives, with near analogues and random picks from the rest. Potency and affinity values are given separately.
State just the number; it will be interpreted in %.

Worked examples, 3 compounds total:
{"compound": "O=C1C2C(c3ccccc3)=NN(c3ccccc3)C2C(=O)N1c1ccccc1 (stereo unspecified)", "reported_metric": "inhibition", "endpoint_value": 0.94}
{"compound": "N=C1/C(=C\\c2ccc(-c3cc(Cl)cc(Cl)c3)o2)C(=O)N=C2SC=C(c3ccccc3)N12", "reported_metric": "inhibition", "endpoint_value": -7.2}
{"compound": "Cc1noc(NS(=O)(=O)c2ccc(N/C=C/C(=O)c3ccc(F)cc3)cc2)c1C", "reported_metric": "inhibition", "endpoint_value": 3.6}

Enquiry: I would be grateful if you could share the reported inhibition for CCCCn1c(CNC(=O)C23CC4CC(CC(C4)C2)C3)nnc1SC(C)CC (stereo unspecified) .
Return: -3.15

Enquiry: I would be grateful if you could share the reported inhibition for COc1cc(O)c(C(CCN2CCCC2)c2cc(OC)c(OC)c(OC)c2)c(OC)c1 (stereo unspecified) .
Return: 1.11

Enquiry: I would be grateful if you could share the reported inhibition for Cc1noc(NS(=O)(=O)c2ccc(N/C=C\C(=O)c3cccs3)cc2)c1C .
Return: 13.3

Enquiry: I would be grateful if you could share the reported inhibition for Cc1cccc(NC(=O)C2CCCC2)c1 .
Return: 13.7

###

- target_or_test_system: Bifunctional protein GlmU (Mycobacterium tuberculosis (strain ATCC 25618 / H37Rv)) (UniProt P9WMN3)
- assay_name: inhibition of mycobacterial GlmU enzyme – biochemical, glucosamine-1-phosphate acetyltransferase (AID 1376);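 note: 0% = complete reaction with vehicle and 100% = reaction without substrate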
- condition_info: M. tuberculosis GlmU acetyltransferase enzyme assay; stronger effect = higher value;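 tested at 30 µM in the primary screen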
Among all 220,000 compounds or so, about 530 (0.24%) were called active. This is one part of a sample in which actives are shown more often than they occur. Results with a measured potency or affinity are listed apart.
reported_metric: inhibition (%)
State just the number; it will be interpreted in %.

{"compound": "Cc1ccccc1NC(=O)Nc1cc(-c2ccccc2)nn1C", "inhibition / %": -3.02}
{"compound": "CCn1c2ccc(Cl)cc2c2nc3ccccc3nc21", "inhibition / %": 2.14}
{"compound": "COc1cccc(NC(=O)C(Sc2nnc(Nc3ccccc3C)s2)c2ccccc2)c1 (configuration not stated)", "inhibition / %": -3.98}

Enquiry: I would be grateful if you could share the reported inhibition for Cc1nc(NC(=O)CCCC(=O)Nc2nc(C)c(C)s2)sc1C .
Return: 13.9

Enquiry: I would be grateful if you could share the reported inhibition for S=C(NCCc1ccccn1)Nc1cccc(Cl)c1 .
Return: 2.84

Enquiry: I would be grateful if you could share the reported inhibition for Cc1cc(C)c2c(=O)n(CC(=O)Nc3ccc(Br)c(C)c3)sc2n1 .
Return: -1.95

Enquiry: I would be grateful if you could share the reported inhibition for Cc1cc(C)c2c(=O)n(CC(=O)NC3CCCC3)sc2n1 .
Return: 15

Enquiry: I would be grateful if you could share the reported inhibition for Cc1cc(C)c2c(=O)n(CC(=O)Nc3cccc(F)c3)sc2n1 .
Return: 9.3

###

- target_or_test_system: Bifunctional protein GlmU (Mycobacterium tuberculosis (strain ATCC 25618 / H37Rv))
- assay_name: inhibition of mycobacterial GlmU enzyme – biochemical, glucosamine-1-phosphate acetyltransferase (AID 1376);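 note: 0% = complete reaction with vehicle and 100% = reaction without substrate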
- condition_info: M. tuberculosis GlmU acetyltransferase enzyme assay;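 tested at 30 µM in the primary screen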
The campaign covered roughly 220,000 compounds. About 530 (0.24%) were called active. No stated cut-off is given here; in the data, active means inhibition above about 13%; inconclusive means no clear call, values can overlap the other calls; inactive means below that. The list comes from a sample in which actives are over-represented; it also holds close analogues and randomly drawn compounds. Entries with a potency or affinity are not part of this list.
Can you answer with just one of these options? active, inactive

{"molecule": "COc1ccc(NC(=O)CN2CCN(CC(=O)Nc3ccccc3F)CC2)cc1OC", "label": "inactive"}
{"molecule": "O=C(/C=C/c1ccco1)Oc1cccc2cccnc12", "label": "active"}
{"molecule": "O=c1cc(-c2ccccc2Cl)oc2cccc(O)c12", "label": "inactive"}
{"molecule": "COc1ccc(C(CNC(=O)c2ccc(S(=O)(=O)N(C)C)cc2)N2CCCCC2)cc1 (stereo not drawn)", "label": "inactive"}
{"molecule": "CCCNC(=O)c1ccc(CNc2c(N3CCC(C(=O)OCC)CC3)c(=O)c2=O)cc1", "label": "inactive"}

Could you now look at the following molecule, please?
Enquiry: Query: recorded result category for O=c1/c(=C\c2ccc(O)cc2)sc2nc(-c3ccccc3)c(-c3ccccc3)n12 in this test
Return: inactive
